Molecular target: Adrenergic receptor alpha-2 (Rattus norvegicus, UniProt P22086+P19328+P22909)
Assay: Alpha-2 adrenergic receptor agonistic activity in rat vas deferens.
READOUT LABEL: IC50

1. CCC[C@@]1(C2=NCCN2)Cc2ccccc2N1C > 1000 nM

Input: Need IC50, item "C=CC[C@@]1(C2=NCCN2)Cc2ccccc2N1C"
Output: > 1000 nM

Input: // returns reported IC50 for input "C[C@@H]1Cc2ccccc2N[C@@H]1C1=NCCN1"
Output: > 1000 nM

Input: Consider the compound shown here: "CN1c2ccccc2C[C@@]1(C)C1=NCCN1" What is its recorded IC50?
Output: > 300 nM

Input: Returns the measured IC50 for the input compound. Input: "C[C@H]1c2ccccc2N(C)[C@@H]1C1=NCCN1"
Output: > 1000 nM

Input: Recorded IC50 for "CC(C)N(C[C@@]1(C2=NCCN2)Cc2ccccc2N1C)C(C)C" , please?
Output: 94.8 nM

Input: Fill in: IC50 of "C[C@@H]1c2ccccc2N(C)[C@@H]1C1=NCCN1" is ___
Output: 3.29 nM
